Molecular target: RPS6KA4 KD2 (human) (UniProt O75676)
Sequence (O75676 whole entry, looked up): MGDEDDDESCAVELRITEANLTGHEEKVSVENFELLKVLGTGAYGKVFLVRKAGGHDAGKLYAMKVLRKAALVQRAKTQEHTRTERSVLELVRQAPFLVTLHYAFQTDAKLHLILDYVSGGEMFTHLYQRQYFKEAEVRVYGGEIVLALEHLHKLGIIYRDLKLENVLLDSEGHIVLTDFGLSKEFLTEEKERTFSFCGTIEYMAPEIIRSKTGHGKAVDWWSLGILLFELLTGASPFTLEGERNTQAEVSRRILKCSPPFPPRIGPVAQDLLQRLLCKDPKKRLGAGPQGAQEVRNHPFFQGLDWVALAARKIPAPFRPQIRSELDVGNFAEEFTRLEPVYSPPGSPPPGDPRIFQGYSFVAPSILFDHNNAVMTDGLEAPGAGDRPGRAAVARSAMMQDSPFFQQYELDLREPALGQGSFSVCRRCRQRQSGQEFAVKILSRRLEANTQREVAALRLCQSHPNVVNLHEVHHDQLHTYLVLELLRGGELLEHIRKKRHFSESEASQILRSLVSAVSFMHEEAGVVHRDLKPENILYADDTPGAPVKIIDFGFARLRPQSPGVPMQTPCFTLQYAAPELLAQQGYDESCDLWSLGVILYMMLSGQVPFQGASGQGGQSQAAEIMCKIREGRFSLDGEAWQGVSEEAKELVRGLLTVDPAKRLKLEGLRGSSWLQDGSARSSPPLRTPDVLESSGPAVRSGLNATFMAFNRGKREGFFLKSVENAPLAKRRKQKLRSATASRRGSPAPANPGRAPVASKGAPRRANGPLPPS
Assay: KINOMEscan competition binding
Details: compound 10.0 µM
Outcome measure: kinase still bound, per cent of control (%)
One number for each entry, in %.

Field: example entries. Status: answers known.
CCc1nc(-c2cccc(C)c2)c(-c2ccnc(NC(=O)c3ccccc3)c2)s1    100
COc1cc2ncnc(Nc3cccc(Cl)c3)c2cc1OC    91
COc1ccc(N(C(=O)Oc2cc(C(=O)Nc3cccc(C(F)(F)F)c3)ccc2C)c2ccnc(Nc3ccc(N4CCN(C)CC4)cc3)n2)c(OC)c1    100
CCN(CCO)CCCOc1ccc2c(Nc3cc(CC(=O)Nc4cccc(F)c4)[nH]n3)ncnc2c1    79

As a next step, examine the compound that follows.
Field request: kinase still bound, per cent of control | item: "C=CC(=O)Nc1ccc(C(=O)c2sc(Nc3ccc(N4CCN(C)CC4)cc3OC)nc2N)cc1"
0.2
